System: S. cerevisiae Mot1-301 ts growth rescue, BacTiter-Glo ATP luminescence
Assay Remarks: restored Mot1-301 yeast growth at 38.5C – whole organism, S. cerevisiae, Mot1-301 ts mutant, luminescence, dose retest, SUMOylation pathway inhibitor project, confirmation (AID 463204);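 also: growth at restrictive 38.5 degrees C of Mot1-301 OY566 strain; actives raise luminescence by restoring growth of the ts mutant at high temperature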
Active and inactive are the calls of the source.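 The calls were made as follows: active = AC50 no more than ten times the top concentration tested, that is within one log above it; inconclusive = flat curve fit with activity between 30% and 70%, or invalid poor fit; inactive = AC50 beyond ten times the top tested dose.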
Your response should consist of one outcome taken from active, inactive

As a guide, the following entries are already answered.
>  <Compound>
Cc1cc(=O)oc2ccc(OC(=O)CC(C)C)cc12

>  <Category>
inactive

$$$$
>  <Compound>
O=C(c1ccccc1)C(CN1CCCC1)c1ccccc1 (stereo not given)

>  <Category>
active

$$$$
>  <Compound>
Cc1cc(O)c(/C=N/Nc2cccc(Cl)c2)c(=O)o1

>  <Category>
active

$$$$
>  <Compound>
CCCCCCC(C)n1[nH]c(=O)c2c(C)cc(=O)[nH]c21 (stereo not given)

>  <Category>
inactive

$$$$
>  <Compound>
COc1ccc(N2CCN(C(=O)CNC(=O)Cc3ccc(Cl)cc3)CC2)cc1

>  <Category>
inactive

$$$$

Asked: Per the records of this test, what outcome belongs to Cc1nn(C)cc1S(=O)(=O)Nc1ncccn1 ?
Given back: inactive

Asked: Per the records of this test, what outcome belongs to COc1ccc(S(=O)(=O)n2nc(-c3ccc(Cl)cc3)cc2N)cc1OC ?
Given back: inactive
